Items are presented alongside their recorded melting point.

COc1c(C)cc(-c2cc(-c3cccnc3)c(N3CCOCC3)s2)nc1C | 139 to 140 °C
CCCCCCCCOc1cc(CBr)c(OCCCCCCCC)cc1CBr | 83 °C
O=C(c1cc(Br)cc(Br)c1O)c1cc(Br)cc(Br)c1O | 179 °C

Now look at this one.
Consider the molecule CC(=O)COc1c([N+](=O)[O-])ccc(F)c1C(C)=O . State its measured melting point.
64 to 65 °C

* * *

Items are presented alongside their recorded melting point.

Worked cases, melting point given:
CSC1CC(=O)N1CC(=O)NCc1ccccc1 (centres undefined) | 84 to 87 °C
O=C(O)c1ccc(OCc2ccccc2)c(C23CC4CC(CC(C4)C2)C3)c1 | 251 to 253 °C
CCOC(=O)c1ccc(C#Cc2ccc(C)cc2)c(OC)c1 | 71 to 73 °C
Cc1cccc(Nc2ccccc2C=NO)c1C | 107 to 108 °C
FC(F)(F)CNC(=S)Nc1cncc(Cl)n1 | 170 to 172 °C
CC(=O)Oc1c(C(C)(C)C)cc2c(c1C(C)(C)C)CC(C)(C)O2 | 97.7 °C
CCOC(=O)c1ccc(O)c(F)c1 | 79 to 80 °C
NC(=O)c1[nH]c2ccc(Cl)cc2c1S(=O)(=O)c1ccccn1 | 244 to 246 °C
OCc1ccc2nc3c(cc2c1)-c1cccc2cccc-3c12 | 215 to 218 °C
CN(C)c1cc2ccccn2n1 | 51 to 52 °C

Consider the compound Cc1cc(-n2c(=O)cc(C(F)(F)F)n(C)c2=O)c(F)cc1C#N . State its measured melting point.
186 °C

Consider the compound CCOC(=O)C(C)(C)c1nsc2ccc([N+](=O)[O-])cc12 . State its measured melting point.
75 to 77 °C

Consider the compound C[C@H](c1ccccc1)N1C(=O)c2c(F)c(F)c(F)c(F)c2C1=O . State its measured melting point.
95.5 to 96 °C

Consider the compound O=C(Cl)Oc1c(CCl)cccc1CCl . State its measured melting point.
71.5 to 73.5 °C

Consider the compound CCOP(=O)(OCC)C(O)c1ccccc1 (centres undefined) . State its measured melting point.
83 to 83.5 °C

Consider the compound CC1=Cc2cc(-c3nnn[nH]3)ccc2OC1(C)C . State its measured melting point.
179 to 181 °C

Consider the compound COCCOC(=O)c1c(F)cccc1S(=O)(=O)NC(=O)Nc1nc(OC)nc(OC)n1 . State its measured melting point.
179 to 182 °C

Consider the compound COc1cccc(OC)c1CN1CC2CCCN2c2ncccc21 (centres undefined) . State its measured melting point.
211 to 213 °C

Consider the compound NC(=O)C(F)(F)C(O)(Cn1cncn1)c1ccccc1 (centres undefined) . State its measured melting point.
160 to 161 °C

Consider the compound COC(=O)/C=C(C)/C=C/C(F)=C(C)/C=C/c1c(C)sc(C)c1C . State its measured melting point.
126 to 128 °C

Measured values drawn from a melting point compilation (Tetko et al.; mined from patent text by program, amines drawn as free bases though some values may be those of a salt) for this set.
